What Efficacy was measured for each of the following?
STUDY_SYSTEM: Nuclear receptor ROR-gamma (Homo sapiens) (UniProt P51449)
Sequence (P51449 whole entry, the tested form may be a part): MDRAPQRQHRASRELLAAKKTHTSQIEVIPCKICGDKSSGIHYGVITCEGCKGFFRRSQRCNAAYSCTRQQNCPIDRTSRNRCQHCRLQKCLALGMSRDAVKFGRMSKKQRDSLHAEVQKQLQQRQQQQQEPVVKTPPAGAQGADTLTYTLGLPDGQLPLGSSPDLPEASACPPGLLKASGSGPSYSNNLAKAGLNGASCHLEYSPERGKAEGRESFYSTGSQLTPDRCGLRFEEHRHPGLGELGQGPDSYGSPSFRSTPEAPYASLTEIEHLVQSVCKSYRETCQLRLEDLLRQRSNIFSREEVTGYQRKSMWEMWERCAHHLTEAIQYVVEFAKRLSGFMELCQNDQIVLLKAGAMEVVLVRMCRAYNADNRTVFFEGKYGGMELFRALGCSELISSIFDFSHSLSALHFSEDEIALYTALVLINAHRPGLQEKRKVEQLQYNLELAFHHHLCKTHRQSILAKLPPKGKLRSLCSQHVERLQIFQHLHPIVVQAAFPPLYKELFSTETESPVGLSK
ASSAY_DETAILS: Transrepression of recombinant human GAL4-DBD fused RORgammat LBD expressed in HEK293 cells after 20 hrs by luciferase reporter gene assay
Assay type: cell-based
Numbers only, in %.

CCS(=O)(=O)c1ccc(CC(=O)Nc2ccc(C(C)(C)C(=O)Nc3cc(C#N)ccn3)c(F)c2)cc1 = 95
CCS(=O)(=O)c1ccc(CC(=O)Nc2ccc(C(C)(C)C(=O)N3CC4(CCC4)C3)cc2)cc1 = 89
CCS(=O)(=O)c1ccc(CC(=O)Nc2ccc(C(C)(C)C(=O)Nc3cc(C(F)(F)F)ccn3)cc2)cc1 = 94
CCS(=O)(=O)c1ccc(CC(=O)Nc2ccc(C(C)(C)C(=O)Nc3cc(C#N)ccn3)cc2)cc1 = 97
CCS(=O)(=O)c1ccc(CC(=O)Nc2ccc(C(C)(C)C(=O)Nc3ccc(F)cc3F)c(F)c2)cc1 = 100

Go through the list and state Efficacy for each entry.
1. CCS(=O)(=O)c1ccc(CC(=O)Nc2ccc(C(C)(C)C(=O)Nc3ccccc3F)cc2)cc1
2. CCS(=O)(=O)c1ccc(CC(=O)Nc2ccc(C(C)(C)C(=O)Nc3ccccc3C)cc2)cc1
3. CCS(=O)(=O)c1ccc(CC(=O)Nc2ccc(C(C)(C)C(=O)N(C)c3ccccc3)cc2)cc1

Outgoing:
1: 93; 2: 93; 3: 93

* * *

ASSAY_DETAILS: Cmax in mouse at 30 mg/kg, po
Type: ADME, organism-based
Set-up: dose 30 mg/kg, route oral
TEST_SETTINGS: in vivo
RESULT_TYPE: Cmax (ng/mL)
Answers are plain numbers, in ng/mL.

CCS(=O)(=O)c1ccc(CC(=O)Nc2ccc(C(C)(C)C(=O)Nc3ccc(F)cc3F)c(F)c2)cc1 = 8350

Incoming: Consider the molecule shown here: CCS(=O)(=O)c1ccc(CC(=O)Nc2ccc(C(C)(C)C(=O)Nc3cc(C#N)ccn3)c(F)c2)cc1 What is its recorded Cmax?
Outgoing: 2700

* * *

ASSAY_DETAILS: Tmax in mouse at 30 mg/kg, po
Type: ADME, organism-based
TEST_SETTINGS: in vivo
Field: Tmax. Provide a value for each of the compounds that follow.
Numbers only, in h.

CCS(=O)(=O)c1ccc(CC(=O)Nc2ccc(C(C)(C)C(=O)Nc3cc(C#N)ccn3)c(F)c2)cc1 = 0.5

Incoming: Item CCS(=O)(=O)c1ccc(CC(=O)Nc2ccc(C(C)(C)C(=O)Nc3ccc(F)cc3F)c(F)c2)cc1 has what recorded Tmax?
Outgoing: 1.5

* * *

ASSAY_DETAILS: Cmax in rat at 1 mg/kg, po
Type: ADME, organism-based
Set-up: dose 1 mg/kg, route oral
TEST_SETTINGS: in vivo
Exercise: state measured Cmax for each of the compounds provided.
Give bare numbers, in ng/mL.

Need Cmax for each of these compounds.
1. CCS(=O)(=O)c1ccc(CC(=O)Nc2ccc(C(C)(C)C(=O)Nc3ccc(F)cc3F)c(F)c2)cc1
2. CCS(=O)(=O)c1ccc(CC(=O)Nc2ccc(C(C)(C)C(=O)Nc3cc(C#N)ccn3)c(F)c2)cc1
3. CCS(=O)(=O)c1ccc(CC(=O)Nc2ccc(C(C)(C)C(=O)Nc3ccc(F)cc3)c(F)c2)cc1

Outgoing:
1: 185; 2: 33.3; 3: 85.3

The reported measurements were obtained from ChEMBL document CHEMBL4261613.
